Source of measurements: ChEMBL document CHEMBL5137008

assay-remarks: Cytotoxicity against human L02 cells assessed as inhibition of cell growth incubated for 24 hrs in presence of foetal bovine serum by MTT assay
Format: toxicity, cell-based
assay-endpoint: IC50 at 24 h (µM)
// units = µM; emit number, no label

Could you share which IC50 at 24 h value was measured for CC(C)=CC[C@@H](O)C1=CC(=O)c2c(O)ccc(O)c2C1=O ? 10.5

What do you get for COc1cc2c(c(OC)c1OC)-c1ccc(OC)c(=O)cc1[C@@H](NC(C)=O)CC2 ? 2.3

---

assay-remarks: Cytotoxicity against human L02 cells incubated for 48 hrs by MTT assay
Type: toxicity, cell-based
I'd appreciate it if you could supply IC50 at 48 h values for the items below.

Please look up its IC50 at 48 h: CC(C)=CC[C@@H](OC(=O)CCC(=O)Nc1ccc(Oc2ccccc2)cc1)C1=CC(=O)c2c(O)ccc(O)c2C1=O > 50 µM

Another: COc1cccc2c1C(=O)c1c(O)c3c(c(O)c1C2=O)C[C@@](O)(C(=O)CO)C[C@@H]3O[C@H]1C[C@H](N)[C@H](O)[C@H](C)O1 [DOXORUBICIN] > 100 µM

---

assay-remarks: Cytotoxicity against human MCF-10A assessed as inhibition of cell growth incubated for 24 hrs in presence of foetal bovine serum by MTT assay
Type: toxicity, cell-based
applied-conditions: MCF-10A cells
assay-endpoint: IC50 at 24 h (µM)
Record the value in µM, omitting the unit from your answer.

Bench note: what IC50 at 24 h did CC(C)=CC[C@@H](O)C1=CC(=O)c2c(O)ccc(O)c2C1=O [SHIKONIN] show? 23.5

---

Please respond with reported IC50 for every item in the list.
System: HeLa
assay-remarks: Antiproliferative activity against human HeLa cells assessed as reduction in cell viability incubated for 24 hrs by MTT assay
Type: functional, cell-based
Express your answer in µM, writing the number without its unit.

// fetch HeLa IC50 for CC(C)=CC[C@@H](O)C1=CC(=O)c2c(O)ccc(O)c2C1=O 2.82

And the next one, CC(C)=CC[C@@H](OC(=O)C1CC1)C1=CC(=O)c2c(O)ccc(O)c2C1=O ? 3.47

---

assay-remarks: Cytotoxicity against human MCF-10A cells assessed as inhibition of cell proliferation incubated for 24 hrs by CCK-8 assay
Assay type: toxicity, cell-based
assay-endpoint: IC50 at 24 h (µM)
Numbers only; they are read as µM.

Recorded IC50 at 24 h of CC(C)=CC[C@@H](O)C1=CC(=O)c2c(O)ccc(O)c2C1=O [SHIKONIN] , please. 20.9

---

assay-remarks: Cytotoxicity against African green monkey Vero cells incubated for 24 hrs by MTT assay
Assay type: toxicity, cell-based, Chlorocebus sabaeus
Task for the reader: assign each of the following compounds its reported IC50 at 24 h.
Your answer should be a plain number; it is taken to be in µM.

Which value of IC50 at 24 h has been reported for CC(C)=CC[C@@H](O)C1=CC(=O)c2c(O)ccc(O)c2C1=O in the records? 6.76

Subsequent entry: CC(=O)O[C@@H]1[C@@H](OC(C)=O)[C@H](Sc2cc(O)c3c(c2O)C(=O)C=C([C@@H](CC=C(C)C)SC2OC[C@@H](OC(C)=O)[C@H](OC(C)=O)[C@H]2OC(C)=O)C3=O)OC[C@H]1OC(C)=O (some centres not stated) 82.5

---

assay-remarks: Cytotoxicity against human skin fibroblast cells incubated for 24 hrs by MTT assay
Assay type: toxicity, cell-based
assay-endpoint: IC50 at 24 h (µM)
Value expressed in µM; do not type the unit.

Item CC(C)=CC[C@H](O)C1=CC(=O)c2c(O)ccc(O)c2C1=O has what recorded IC50 at 24 h? 1.8

---

assay-remarks: Cytotoxicity against human L02 incubated for 24 hrs by MTT assay
Format: toxicity, cell-based
applied-conditions: L02 cells
Field: IC50 at 24 h. Provide a value for each of the molecules that follow.
The reply should contain only the number, in µM.

For the molecule CC(C)=CC[C@@H](O)C1=CC(=O)c2c(O)ccc(O)c2C1=O , what IC50 at 24 h is on record? 83.8

Further, for CC(=O)O[C@@H]1[C@@H](OC(C)=O)[C@H](Sc2cc(O)c3c(c2O)C(=O)C=C([C@@H](CC=C(C)C)SC2OC[C@@H](OC(C)=O)[C@H](OC(C)=O)[C@H]2OC(C)=O)C3=O)OC[C@H]1OC(C)=O (some centres not stated) ? 132

---

assay-remarks: Cytotoxicity against human HEK293T cells assessed as inhibition of cell growth incubated for 24 hrs in presence of foetal bovine serum by MTT assay
Format: toxicity, cell-based, HEK-293T
assay-endpoint: IC50 at 24 h (µM)
The figure you give is taken to be in µM; do not add the unit.

I'd like to know its IC50 at 24 h. The compound in question is CC(C)=CC[C@@H](O)C1=CC(=O)c2c(O)ccc(O)c2C1=O 9.27

// query: COc1cc2c(c(OC)c1OC)-c1ccc(OC)c(=O)cc1[C@@H](NC(C)=O)CC2 1.03

---

System: SCC-4
assay-remarks: Antiproliferative activity against human SCC-4 cells assessed as inhibition of cell proliferation incubated for 24 hrs by MTT assay
Assay type: functional, cell-based
applied-conditions: SCC-4, 24 h
assay-endpoint: pIC50
Here pIC50 is given on a logarithmic scale as minus log10 of the concentration in mol/L.

Which measured pIC50 value corresponds to CC(C)=CC[C@@H](O)C1=CC(=O)c2c(O)ccc(O)c2C1=O [SHIKONIN] ? 5.00

---

Tested on: MDA-MB-468
assay-remarks: Antiproliferative activity against human MDA-MB-468 cells assessed as inhibition of cell growth incubated for 24 hrs in presence of foetal bovine serum by MTT assay
Format: functional, cell-based
applied-conditions: MDA-MB-468, 24 h
assay-endpoint: IC50 (µM)
Give just the number in µM; leave the unit off.

For the compound CC(C)=CC[C@@H](O)C1=CC(=O)c2c(O)ccc(O)c2C1=O [SHIKONIN] , what IC50 is on record? 3.28

---

assay-remarks: Antitubulin activity against bovine brain tubulin polymerization preincubated with compound followed by GTP addition by turbidimetry-based spectrophotometric method
Design: species or system Bos taurus
Assign pIC50 to each entry below.
// pIC50 is dimensionless: -log10 of concentration (M)

Requested read-out: pIC50. Entry: CC(C)=CC[C@@H](OC(=O)CCCOc1ccc(Cl)cc1C)C1=CC(=O)c2c(O)ccc(O)c2C1=O 4.77

And CC(C)=CC[C@@H](OC(=O)Cc1ccc(Oc2ccccc2)cc1)C1=CC(=O)c2c(O)ccc(O)c2C1=O ? 5.37

Same thing, different compound: CC(=O)O[C@@H]1[C@@H](OC(C)=O)[C@H](Sc2cc(O)c3c(c2O)C(=O)C=C([C@@H](CC=C(C)C)SC2OC[C@@H](OC(C)=O)[C@H](OC(C)=O)[C@H]2OC(C)=O)C3=O)OC[C@H]1OC(C)=O (some centres undefined) 5.33

What do you get for CC(C)=CC[C@@H](O)C1=CC(=O)c2c(O)ccc(O)c2C1=O [SHIKONIN] ? 4.77

---

System: HeLa
assay-remarks: Antiproliferative activity against human HeLa cells assessed as inhibition of cell proliferation incubated for 24 hrs by MTT assay
Type: functional, cell-based
assay-endpoint: pIC50
As a rule, pIC50 stands for the negative log10 of the concentration, concentration in M.

Requested field: pIC50. Item: CC(C)=CC[C@@H](O)C1=CC(=O)c2c(O)ccc(O)c2C1=O [SHIKONIN] 5.24

---

Tested on: MGC-803
assay-remarks: Anticancer activity against human MGC-803 cells incubated for 72 hrs by MTT assay
Type: functional, cell-based
applied-conditions: MGC-803, 72 h
assay-endpoint: pIC50
On this scale, pIC50 is minus log10 of a concentration expressed in M (mol/L).

I'd like to know its pIC50. The compound in question is CC(C)=CC[C@@H](O)C1=CC(=O)c2c(O)ccc(O)c2C1=O 5.89

---

Tested on: HepG2
assay-remarks: Anticancer activity against human HepG2 cells assessed as inhibition of cell growth incubated for 24 hrs by MTT assay
Type: functional, cell-based
applied-conditions: HepG2, 24 h
Hi there, I'd appreciate the recorded pIC50 for every entry that follows.
To interpret pIC50, take it as minus log10 of a concentration measured in moles per litre.

Field request: pIC50 | item: CC(C)=CC[C@@H](O)C1=CC(=O)c2c(O)ccc(O)c2C1=O 6.38

Try CC(C)=CC[C@@H](OC(=O)Cc1ccc(Oc2ccccc2)cc1)C1=CC(=O)c2c(O)ccc(O)c2C1=O next. 6.37

Could you do the same for COc1cc2c(c(OC)c1OC)-c1ccc(OC)c(=O)cc1[C@@H](NC(C)=O)CC2 , please? 5.33

Okay, and CC(C)=CC[C@@H](OC(=O)CCCOc1ccc(Cl)cc1C)C1=CC(=O)c2c(O)ccc(O)c2C1=O ? 6.37

---

Would you kindly list IC50 for each of these compounds?
System: HeLa
assay-remarks: Antiproliferative activity against human HeLa cells assessed as inhibition of cell proliferation incubated for 20 hrs by MTT assay
Type: functional, cell-based
Number only, in nM; omit the unit.

Give HeLa IC50 for CC(C)=CC[C@@H](OC(=O)[C@@H](Cc1ccccc1)N1C(=O)C2C3C=CC(C3)C2C1=O)C1=CC(=O)c2c(O)ccc(O)c2C1=O (some centres undefined) 1260

Next record, please: CC(C)=CC[C@@H](OC(=O)[C@@H](C)N1C(=O)c2ccccc2C1=O)C1=CC(=O)c2c(O)ccc(O)c2C1=O 1930

Same for CC(C)=CC[C@@H](OC(=O)C(Cc1ccccc1)N1C(=O)c2ccccc2C1=O)C1=CC(=O)c2c(O)ccc(O)c2C1=O (some centres undefined) 2920

Another compound to check: CC(C)=CC[C@@H](O)C1=CC(=O)c2c(O)ccc(O)c2C1=O 3110
